Where these numbers come from: patent US11999727B2

Target: PRMT5 (Homo sapiens, UniProt O14744)
Construct: purchased Viva (custom protein)
Sequence (O14744 whole entry): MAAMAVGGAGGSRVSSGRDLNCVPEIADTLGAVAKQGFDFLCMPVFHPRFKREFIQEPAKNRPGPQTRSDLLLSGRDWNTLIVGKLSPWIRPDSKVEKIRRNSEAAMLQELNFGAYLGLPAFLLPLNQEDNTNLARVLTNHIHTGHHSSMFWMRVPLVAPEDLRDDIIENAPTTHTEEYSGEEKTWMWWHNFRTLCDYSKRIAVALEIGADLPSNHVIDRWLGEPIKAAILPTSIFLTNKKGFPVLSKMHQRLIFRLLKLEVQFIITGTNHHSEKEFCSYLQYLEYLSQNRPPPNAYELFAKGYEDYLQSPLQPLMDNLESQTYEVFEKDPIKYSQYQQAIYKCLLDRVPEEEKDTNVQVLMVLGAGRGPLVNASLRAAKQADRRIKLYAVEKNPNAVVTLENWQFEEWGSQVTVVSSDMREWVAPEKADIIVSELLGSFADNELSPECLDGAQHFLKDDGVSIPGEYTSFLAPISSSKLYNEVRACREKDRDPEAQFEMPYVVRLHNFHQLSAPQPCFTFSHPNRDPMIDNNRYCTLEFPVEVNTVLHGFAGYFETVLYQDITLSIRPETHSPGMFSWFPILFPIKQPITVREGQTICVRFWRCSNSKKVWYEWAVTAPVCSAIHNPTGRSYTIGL
Sequence (Q9BQA1 whole entry partner): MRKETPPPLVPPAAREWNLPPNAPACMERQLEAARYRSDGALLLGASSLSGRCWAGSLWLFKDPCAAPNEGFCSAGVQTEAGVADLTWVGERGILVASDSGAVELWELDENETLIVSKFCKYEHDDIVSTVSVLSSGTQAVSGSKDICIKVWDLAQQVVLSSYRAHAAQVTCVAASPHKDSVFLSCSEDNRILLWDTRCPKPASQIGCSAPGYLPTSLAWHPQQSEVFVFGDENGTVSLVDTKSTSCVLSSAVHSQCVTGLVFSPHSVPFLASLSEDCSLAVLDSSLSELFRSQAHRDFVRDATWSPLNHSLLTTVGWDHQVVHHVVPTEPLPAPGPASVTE
Assay: PRMT5 biochemical IC50 assay with no cofactor
Conditions: PRMT5, no cofactor; read-out: No Cofactor/rel IC50
pIC50: −log10 of the molar value.
Provide the recorded pIC50 for the entries that follow.

Query: Which pIC50 value is on record for Cc1cc([C@H]2CC[C@H](C)CN2C(=O)C(=O)Nc2cncc(C(N)=O)c2)ccc1O (single isomer, unassigned) ?
Reply: < 6.30

Query: Another compound to check: Cc1cc(NC(=O)C(=O)N2C[C@H](C)CC[C@H]2C23CC(C(N)=O)(C2)C3)cnc1N (single isomer, unassigned)
Reply: < 6.30

Query: Entry C[C@H]1CC[C@H]([C@@H]2CCC[C@H](O)C2)N(C(=O)C(=O)Nc2cncc(C(N)=O)c2)C1 (single isomer, unassigned) please
Reply: < 6.30

Query: Again, but for CCc1cc(NC(=O)C(=O)N2C[C@@H](C)CC[C@@H]2c2ccc3sc([C@H]4CCN(C)C(C)(C)C4)nc3c2)cnc1N [Compound 1125]
Reply: > 7.30

====

Target: PRMT5 (Homo sapiens, UniProt O14744)
Construct: purchased Viva (custom protein)
Assay: PRMT5 biochemical IC50 assay with no cofactor
Conditions: PRMT5, no cofactor; read-out: No Cofactor/rel IC50
Readout Name: IC50

Query: Field request: IC50 | item: C[C@@H]1CC[C@@H](c2cc(F)c(F)c(Cl)c2)N(C(=O)C(=O)Nc2cncc(C(N)=O)c2)C1 (single isomer, unassigned) [Compound 834]
Reply: 50 to 500 nM

Query: Continue with CCc1cc(NC(=O)C(=O)N2C[C@@H](C)CC[C@@H]2c2ccc3sc(CN4CCOCC4)nc3c2)cnc1N [Compound 1092]
Reply: < 50 nM

Query: Quick one: C[C@@H]1CC[C@@H](c2cccc(Cl)c2)N(C(=O)C(=O)Nc2cnc(N)c(C3CC3)c2)C1 (single isomer, unassigned) [Compound 1169]
Reply: > 500 nM

Query: How about CCc1cc(NC(=O)C(=O)N2C[C@@H](C)CC[C@@H]2c2cc3cn[nH]c3s2)cnc1N (single isomer, unassigned) [Compound 1075] ?
Reply: < 50 nM

Query: Input CNc1cccc([C@H]2CC[C@H](C)CN2C(=O)C(=O)Nc2cncc(C(N)=O)c2)c1 (single isomer, unassigned) [Compound 321]
Reply: > 500 nM

Query: // same read-out, input: Cc1cc(NC(=O)C(=O)N2C[C@@H](C)CC[C@@H]2c2ccc3c(c2)CCNC3=O)cnc1N (single isomer, unassigned) [Compound 988]
Reply: 50 to 500 nM

====

Tested on: HAP1 MTAP-intact cell line
Test: SDMA in-cell western assay, HAP1 MTAP-intact
Type: cell-based
Settings: Homo sapiens, HAP1, SDMA in-cell western, HAP1 MTAP-intact; read-out: MTAP HAP1 intact IC50
pIC50: −log10 of the molar value.
Readout Name: pIC50

Query: Requested read-out: pIC50. Entry: CNc1nc2cc([C@@H]3CC[C@@H](C)CN3C(=O)C(=O)Nc3cnc(N)c(C)c3)ccc2s1 (single isomer, unassigned)
Reply: < 6.00

Query: Next entry: COc1ncc(NC(=O)C(=O)N2C[C@@H](C)CC[C@@H]2c2ccc3[nH]c(C)nc3c2)cc1C(N)=O (single isomer, unassigned)
Reply: < 6.00

Query: Let us now turn to CCC(C)C1CCCCN1C(=O)C(=O)Nc1cnc(N)c(C)c1 (stereo not drawn)
Reply: < 6.00

Query: Cc1cc(NC(=O)C(=O)N2C[C@@H](C)CC[C@@H]2c2ccc3sc(-c4cccnc4)nc3c2)cnc1N (single isomer, unassigned) ?
Reply: > 7.00

Query: Request: Cc1cc(NC(=O)C(=O)N2C[C@H](C)CC[C@H]2c2ccc3[nH]c(=O)ccc3c2)cnc1N (single isomer, unassigned)
Reply: < 6.00

Query: Let us now turn to C[C@H]1CC[C@H](c2ccc3[nH]ncc3c2)N(C(=O)C(=O)Nc2cnc(N)c(C3CC3)c2)C1 (single isomer, unassigned)
Reply: > 7.00

Query: Repeat for the following compound: C[C@@H]1CN(C(=O)C(=O)Nc2cncc(C(N)=O)c2)[C@@H](c2ccccc2)C[C@@H]1O (racemic)
Reply: < 6.00

Query: Quick one: CC1Cc2cc([C@@H]3CC[C@@H](C)CN3C(=O)C(=O)Nc3cncc(C(N)=O)c3)ccc2O1 (mixture of isomers)
Reply: < 6.00

Query: Note, next up: CNc1cccc([C@@H]2CCCCN2C(=O)C(=O)Nc2cncc(C(N)=O)c2)c1 (single isomer, unassigned)
Reply: < 6.00
